Each recorded value in this set is attributed to patent EP0745595A1.

Tested on: ZEA MAYS L.
Test: Postemergence herbicidal evaluation, ZEAMX (Corn, Field)
Assay type: in vivo
Conditions: 0.031 kg/ha
Listed here: items and their measured Herbicidal effect rating, ZEAMX.

Examples from the recorded data:
>  <Molecule>
Cn1c(=O)[nH]c(=O)n(-c2cc(Oc3ccc(C(F)(F)F)cc3Cl)ccc2[N+](=O)[O-])c1=O [B, reference compound]

>  <Result>
3.3

$$$$
>  <Molecule>
COC(=O)Cn1c(=O)n(C)c(=O)n(-c2cc(Oc3c(F)cc(C(F)(F)F)cc3Cl)ccc2F)c1=O

>  <Result>
8.1

$$$$
>  <Molecule>
Cn1c(=O)[nH]c(=O)n(-c2cc(Oc3c(F)cc(C(F)(F)F)cc3Cl)ccc2F)c1=O [C, reference compound]

>  <Result>
3.0

$$$$

Suppose we examine the molecule "COC(=O)Cn1c(=O)n(C)c(=O)n(-c2cc(Oc3ccc(C(F)(F)F)cc3Cl)ccc2[N+](=O)[O-])c1=O" ; what Herbicidal effect rating, ZEAMX value has been reported? 4.6
